Target: MBP-FoxP1dN (Mus musculus, UniProt P58462 326-579)
Sequence: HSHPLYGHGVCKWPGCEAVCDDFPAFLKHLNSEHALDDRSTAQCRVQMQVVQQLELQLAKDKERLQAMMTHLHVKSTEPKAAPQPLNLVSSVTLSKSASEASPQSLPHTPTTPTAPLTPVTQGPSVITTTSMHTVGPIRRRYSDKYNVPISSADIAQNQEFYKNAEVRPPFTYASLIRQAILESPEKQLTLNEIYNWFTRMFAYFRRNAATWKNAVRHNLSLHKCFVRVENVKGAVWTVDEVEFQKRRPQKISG
Assay: PD-seq (MBP pull-down with sequencing); 20 mM Tris-HCl pH 7.5, 100 mM NaCl, 1.5 mM MgCl2, 0.4 uM protein, 0.1 uM dsDNA library, 30 min, room temperature, amylose pull-down; high values mean tight binding
Conditions: protein: recombinant; tags: His6-MBP; chain copies: 2; dsDNA, one strand shown
Whole data set: some 16,000 sequences, median “rpm ratio (pull-down/input)” near 0.94, cut for the highest 2% near 1.7. The list comes from a sample in which the highest values are over-represented; it also holds close analogues and randomly drawn sequences.
# reported binding signal; entries follow

Take a look at these entries with their results.
GATGATTGTTCTCCCAGCTGATGAATTTTAGTTTTCGAGTAAACAAATTTTCCTAATCTTTCTGTTCAAGCGCCATCTAC ... 1.4 RPM ratio (pull-down/input)
GATGATTGTTCTCCCAGCTGATGAATTAAGGCGATCGAGTAAACAAATTTTCCTAATCTTTCTGTTCAAGCGCCATCTAC ... 0.912 RPM ratio (pull-down/input)
GATGATTGTTCTCCCAGCTGATGAATTAATAACCTCGAGTAAACAAATTTTCCTAATCTTTCTGTTCAAGCGCCATCTAC ... 1 RPM ratio (pull-down/input)

Continue with the sequence presented below.
Per the records, this sequence ( `GATGATTGTTCTCCCAGCTGATGAATTAACGCGGTCGAGTAAACAAATTTTCCTAATCTTTCTGTTCAAGCGCCATCTAC` ) has binding signal equal to 0.904 RPM ratio (pull-down/input)
